- TGT: Muscarinic acetylcholine receptor M4 (Homo sapiens)
- METHOD_DESCRIPTION: M4-linked GIRK flux change, two-sided – cell-based, HEK293 M4/GIRK, thallium flux, BTC-AM, M4 allosteric agonist project, primary screen (AID 625);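 also: thallium influx through GIRK channels coupled to M4 in HEK293 cells with BTC-AM dye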
- RECORDED_CONDITIONS: at 10 µM, actives lie on both sides
true means recorded fluorescence slope is 0.006 or above; false means it is below 0.006.

[
  {
    "COMPOUND": "O=C(c1noc2c1CCc1ccccc1-2)N1CCOCC1",
    "CATEGORY": "true"
  },
  {
    "COMPOUND": "CCOc1cc(S(=O)(=O)NCc2ccccn2)c(C)cc1C",
    "CATEGORY": "true"
  },
  {
    "COMPOUND": "COC(=O)CN(c1ccc(F)cc1)S(=O)(=O)c1ccccc1",
    "CATEGORY": "false"
  },
  {
    "COMPOUND": "COC(=O)CN(c1ccc2c(c1)OCO2)S(C)(=O)=O",
    "CATEGORY": "true"
  },
  {
    "COMPOUND": "CCN1CCN(Cc2ccccc2NC(=O)Nc2ccc(C)cc2)CC1",
    "CATEGORY": "false"
  },
  {
    "COMPOUND": "Cc1nn(-c2ccc(F)cc2)c2sc(C(=O)OCC(=O)N3CCC(C)CC3)cc12",
    "CATEGORY": "false"
  },
  {
    "COMPOUND": "CC1(C)CC(=O)C(C2=NC(C)(C)Cc3ccccc32)=C(O)C1",
    "CATEGORY": "false"
  },
  {
    "COMPOUND": "COc1ccc(-c2nc(N3CCCC3)[nH]c(=O)c2C#N)cc1",
    "CATEGORY": "false"
  },
  {
    "COMPOUND": "COc1ccccc1C(O)P(=O)(OC(C)C)c1ccc(N(C)C)cc1 (configuration not stated)",
    "CATEGORY": "false"
  },
  {
    "COMPOUND": "O=C(c1ccccc1)c1ccc(N2CCOCC2)c(NC(=O)c2ccco2)c1",
    "CATEGORY": "true"
  },
  {
    "COMPOUND": "O=C(CCN1CCCC1Cc1ccccc1)c1ccc2c(c1)OCCO2 (configuration not stated)",
    "CATEGORY": "false"
  }
]
